# experiment: Inhibition of bovine heart PDE assessed as inhibition 8-[3H]-cAMP substrate hydrolysis
# Design: species or system Bos taurus
# assay_conditions: read-out: I50
observable: log10(IC50) (log10 of the value in µM)

[
  {
    "input_smiles": "Nc1c2nc(Br)n([C@@H]3O[C@@H]4COP(=O)(O)O[C@H]4[C@H]3O)c2nc[n+]1[O-]",
    "log10(IC50)": 1.77
  },
  {
    "input_smiles": "Nc1ncnc2c1nc(SCc1ccccc1)n2[C@@H]1O[C@@H]2COP(=O)(O)O[C@H]2[C@H]1O",
    "log10(IC50)": 1.23
  },
  {
    "input_smiles": "[N-]=[N+]=Nc1nc2c(N)ncnc2n1[C@@H]1O[C@@H]2COP(=O)(O)O[C@H]2[C@H]1O",
    "log10(IC50)": 1.63
  },
  {
    "input_smiles": "Cc1nc(N)c2nc(Sc3ccc(Cl)cc3)n([C@@H]3O[C@@H]4COP(=O)(O)O[C@H]4[C@H]3O)c2n1",
    "log10(IC50)": 0.70
  },
  {
    "input_smiles": "Cc1nc(N)c2ncn([C@@H]3O[C@@H]4COP(=O)(O)O[C@H]4[C@H]3O)c2n1",
    "log10(IC50)": 0.04
  },
  {
    "input_smiles": "CCCCc1nc(N)c2nc(Br)n([C@@H]3O[C@@H]4COP(=O)(O)O[C@H]4[C@H]3O)c2n1",
    "log10(IC50)": 1.04
  },
  {
    "input_smiles": "Cc1nc(N)c2nc(SCc3ccccc3)n([C@@H]3O[C@@H]4COP(=O)(O)O[C@H]4[C@H]3O)c2n1",
    "log10(IC50)": 0.63
  }
]

* * *

# Species: Bos taurus
# experiment: Ratio of Ka for cAMP to Ka for compound for bovine brain protein kinase in presence of 0.5 nmol [32P]ATP-gamma by liquid scintillation spectrometer
observable: Ratio

[
  {
    "input_smiles": "Cc1nc(N)c2nc(N=[N+]=[N-])n([C@@H]3O[C@@H]4COP(=O)(O)O[C@H]4[C@H]3O)c2n1",
    "observable": "Ratio",
    "numeric_result": 0.45
  },
  {
    "input_smiles": "Nc1ncnc2c1nc(Sc1ccc(Cl)cc1)n2[C@@H]1O[C@@H]2COP(=O)(O)O[C@H]2[C@H]1O",
    "observable": "Ratio",
    "numeric_result": 18
  },
  {
    "input_smiles": "Nc1ncnc2c1nc(Br)n2[C@@H]1O[C@@H]2COP(=O)(O)O[C@H]2[C@H]1O",
    "observable": "Ratio",
    "numeric_result": 2.9
  },
  {
    "input_smiles": "Cc1nc(N)c2nc(SCc3ccccc3)n([C@@H]3O[C@@H]4COP(=O)(O)O[C@H]4[C@H]3O)c2n1",
    "observable": "Ratio",
    "numeric_result": 0.95
  },
  {
    "input_smiles": "Cn1cnc2c(ncn2[C@@H]2O[C@@H]3COP(=O)(O)O[C@H]3[C@H]2O)c1=N",
    "observable": "Ratio",
    "numeric_result": 0.012
  },
  {
    "input_smiles": "Cc1nc(N)c2ncn([C@@H]3O[C@@H]4COP(=O)(O)O[C@H]4[C@H]3O)c2n1",
    "observable": "Ratio",
    "numeric_result": 0.16
  },
  {
    "input_smiles": "Cc1nc(N)c2nc(Br)n([C@@H]3O[C@@H]4COP(=O)(O)O[C@H]4[C@H]3O)c2n1",
    "observable": "Ratio",
    "numeric_result": 3.4
  },
  {
    "input_smiles": "Nc1c2nc(Br)n([C@@H]3O[C@@H]4COP(=O)(O)O[C@H]4[C@H]3O)c2nc[n+]1[O-]",
    "observable": "Ratio",
    "numeric_result": 0.15
  },
  {
    "input_smiles": "Nc1ncnc2c1nc(SCc1ccccc1)n2[C@@H]1O[C@@H]2COP(=O)(O)O[C@H]2[C@H]1O",
    "observable": "Ratio",
    "numeric_result": 2.1
  },
  {
    "input_smiles": "CCCCc1nc(N)c2ncn([C@@H]3O[C@@H]4COP(=O)(O)O[C@H]4[C@H]3O)c2n1",
    "observable": "Ratio",
    "numeric_result": 0.46
  },
  {
    "input_smiles": "CCCCc1nc(N)c2nc(Br)n([C@@H]3O[C@@H]4COP(=O)(O)O[C@H]4[C@H]3O)c2n1",
    "observable": "Ratio",
    "numeric_result": 0.66
  },
  {
    "input_smiles": "Cc1nc(N)c2nc(Sc3ccc(Cl)cc3)n([C@@H]3O[C@@H]4COP(=O)(O)O[C@H]4[C@H]3O)c2n1",
    "observable": "Ratio",
    "numeric_result": 2.3
  }
]
